# credit: patent CN116018351A

Biological target: T1, CD123-Fc重组蛋白 (human, UniProt P26951 19-305)
T1 construct: also called CD123-Fc蛋白; 人CD123-Fc; not shown: Fc part
T1 sequence: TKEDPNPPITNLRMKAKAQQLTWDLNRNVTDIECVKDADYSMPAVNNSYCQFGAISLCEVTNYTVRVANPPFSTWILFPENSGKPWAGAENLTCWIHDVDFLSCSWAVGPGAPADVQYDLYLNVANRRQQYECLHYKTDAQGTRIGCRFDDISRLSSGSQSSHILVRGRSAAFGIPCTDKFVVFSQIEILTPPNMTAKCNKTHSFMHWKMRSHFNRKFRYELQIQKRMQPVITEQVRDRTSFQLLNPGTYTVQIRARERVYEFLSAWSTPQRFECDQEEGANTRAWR
Test: FACS staining of CAR T cells with CD123-Fc recombinant protein
quantityName: binding result

[[record]]
binder = "抗CD123 scFv-C26 (in a CAR on T cells) (scFv, Human scFv from phage display; not shown: rest of the CAR, hinge domain to CD3-zeta domain) scFv: QSVLTQPPSASGTPGQRVTISCSGSRSNIGSNTVSWYQQFPGTAPKLLIYLNNQRPSGVPDRFSGSKSGTSASLAISGLQSEDEAEYYCATWDDDLNGVFGGGTKLTVLGGGGSGGGGSGGGGSEVQLVESGGGLVQPGGSLRLSCAASGFTLSNFEMNWVRQAPGRGLEWVSYISATTSATSYADSVKGRFTISRDNAKNSLYLQMNSLRAEDTAVYYCARVRDGYNFGYYYYYMDVWGKGTTVTVSS"
quantityname = "binding result"
reportedmeasurement = "binds"

[[record]]
binder = "抗CD123 scFv-C2 (in a CAR on T cells) (scFv, Human scFv from phage display; not shown: rest of the CAR, hinge domain to CD3-zeta domain) scFv: QSVVTQPPSVSAAPGQKVTISCSGSSSNIGNNYVSWYQQFPGTAPKLLIYDNNKRPSGIPDRFSGSKSGTSGTLGITGLQTGDEADYYCVTWDTSLSAGVFGGGTKLTVLGGGGSGGGGSGGGGSQITLKESGGGLVKPGGSLRLSCAASGFTFSNAWMSWVRQAPGKGLEWVGRIKSKTDGGTTDYAAPVKGRFTISRDDSKNTLYLQMNSLKTEDTAVYYCTTDPHGYYYGMDVWGQGTTVTVSS"
quantityname = "binding result"
reportedmeasurement = "binds"

[[record]]
binder = "抗CD123 scFv-C6 (in a CAR on T cells) (scFv, Human scFv from phage display; not shown: rest of the CAR, hinge domain to CD3-zeta domain) scFv: SYELTQPPSVSVSPGQTARIPCSGADLGDQYVSWYQHQPGQSPLLVIYEDDKRPSGIPERFSGSNSGNTATLTISGTQAMDEADYYCQAWDGNAAIFGGGTKLTVLGGGGSGGGGSGGGGSQVQLVQSGGGSVQPGGSLRLSCAASGFTFTRYSMNWVRQAPGKGLEWVSYISSSSSTIYYADSVKGRFTISRDNAKNSLYLQMNSLRDEDTAVYYCARDGYGGNSDYYGMDVWGQGTTVTVSS"
quantityname = "binding result"
reportedmeasurement = "binds"

